Source: ChEMBL document CHEMBL1961873

Each entry below lists one item and its recorded inhibition value.
- TARGET_DESC: Casein kinase I isoform gamma-3 (Homo sapiens) (UniProt Q9Y6M4)
- Sequence (Q9Y6M4 whole entry, looked up, canonical isoform): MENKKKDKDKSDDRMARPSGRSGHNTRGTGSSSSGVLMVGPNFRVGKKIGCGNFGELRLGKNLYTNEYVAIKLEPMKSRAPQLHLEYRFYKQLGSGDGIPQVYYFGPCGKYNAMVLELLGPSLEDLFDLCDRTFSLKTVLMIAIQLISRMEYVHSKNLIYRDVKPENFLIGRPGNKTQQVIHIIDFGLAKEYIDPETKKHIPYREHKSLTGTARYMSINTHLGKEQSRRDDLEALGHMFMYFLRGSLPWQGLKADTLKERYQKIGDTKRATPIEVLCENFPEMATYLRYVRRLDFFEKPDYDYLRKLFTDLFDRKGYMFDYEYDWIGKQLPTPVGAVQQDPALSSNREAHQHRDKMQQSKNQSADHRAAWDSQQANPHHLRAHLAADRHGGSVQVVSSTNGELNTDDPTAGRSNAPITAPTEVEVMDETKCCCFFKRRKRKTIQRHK
- APPLIED_CONDITIONS: at 0.1 µM

NS(=O)(=O)c1ccc(N/N=C2\C(=O)Nc3ccc(-c4cnco4)cc32)cc1	-3.27%
O=C(NCC1CC1)c1ccc(-c2cccc(C(=O)NC3CC3)c2)cc1	0.19%
CCc1ccc(Oc2nccc(-c3c(-c4ccc(F)cc4)ncn3C3CCNCC3)n2)cc1	6.23%
O=C1Nc2ccc(I)cc2C1=Cc1cc(Br)c(O)c(Br)c1	3.79%
Cc1nnc(-c2ccc(C)c(-c3ccc(C(=O)NCc4ccc(Cl)cc4)cc3)c2)o1	-1.5%
c1ccc(Oc2ccc(Nc3ncc(-c4ccccc4)o3)cc2)cc1	-0.2%
FC(F)(F)c1cccc(Nc2nccc(-c3cnn4nc(-c5ccccc5)ccc34)n2)c1	1.84%
CCc1cccc(CC)c1/C=C/c1cncc(C(=O)NC)c1	2.87%
Fc1ccc(-c2c(-c3ccncc3)nc3n2CCS3)cc1	-3.04%
O=C(Nc1n[nH]c2cc(-c3cc(F)ccc3F)ccc12)C1CC1	1.27%

Task: Identify the measured inhibition of CN1CCN(CCCNc2nc3ccc(Oc4ccc(NC(=O)Nc5cc(C(F)(F)F)ccc5F)cc4)cc3[nH]2)CC1 for Casein kinase I isoform gamma-3 (Homo sapiens) (UniProt Q9Y6M4).
Result: -3.59%

Task: Look up inhibition with Casein kinase I isoform gamma-3 (Homo sapiens) (UniProt Q9Y6M4) for this molecule: O=C1Nc2ccccc2/C1=C/Nc1ccc(-n2cncn2)cc1
Result: 2.62%

Task: Provide value of inhibition for this record tested with Casein kinase I isoform gamma-3 (Homo sapiens) (UniProt Q9Y6M4): C/C(Nc1ccc(S(N)(=O)=O)cc1)=C1/C(=O)Nc2ccccc21
Result: -1.23%

----------
Collected inhibition values appear next to each entry.
- TARGET_DESC: MAP kinase-activated protein kinase 2 (Homo sapiens) (UniProt P49137);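 also: values are mean inhibition from the GSK PKIS screen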
- Sequence (P49137 whole entry, looked up): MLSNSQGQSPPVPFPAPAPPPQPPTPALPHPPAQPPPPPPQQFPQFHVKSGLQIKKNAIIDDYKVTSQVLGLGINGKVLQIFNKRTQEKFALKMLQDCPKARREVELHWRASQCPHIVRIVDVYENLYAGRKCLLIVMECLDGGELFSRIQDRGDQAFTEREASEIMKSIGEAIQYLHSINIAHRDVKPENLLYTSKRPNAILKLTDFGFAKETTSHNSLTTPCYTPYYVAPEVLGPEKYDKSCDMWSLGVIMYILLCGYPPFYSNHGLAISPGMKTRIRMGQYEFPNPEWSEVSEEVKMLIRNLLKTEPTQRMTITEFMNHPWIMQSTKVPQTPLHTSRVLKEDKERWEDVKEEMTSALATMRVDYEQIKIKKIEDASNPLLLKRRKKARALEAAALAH
- APPLIED_CONDITIONS: at 1 µM
Response body: numeric value in %, unit text excluded.

Check out these entries, answers already filled in.
CN(C)CCOc1ccc(-c2cc(-c3ccc4c(c3)CCC4=NO)c(-c3ccncc3)o2)cc1	-1.61
Nc1nccc(-c2c(-c3ccc(F)cc3)ncn2C2CCC(O)CC2)n1 (stereo not drawn)	-1.57

// next item, inhibition requested
Task: Would you kindly share the measured inhibition for NS(=O)(=O)c1ccc(N/N=C2\C(=O)Nc3ccc(C(=O)NCCCn4ccnc4)cc32)cc1 ?
Result: 5.55

----------
- TARGET_DESC: Phosphorylase b kinase gamma catalytic chain, skeletal muscle/heart isoform (Homo sapiens);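 also: each value is a mean percent inhibition of PHKG1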
- APPLIED_CONDITIONS: at 1 µM
OUTCOME_MEASURE: inhibition (%)
Express the result in % but write the number alone.

Fc1ccc(-c2ncn(C3CCNCC3)c2-c2ccnc(Oc3ccc(F)c(F)c3)n2)cc1	10.8
NS(=O)(=O)c1ccc(Nc2cc(-c3ccc(O)c(F)c3)n[nH]2)cc1	16
Clc1ccc(CNc2nccc(-c3cnn4ncccc34)n2)cc1	5.35

Task: Need inhibition of N#Cc1ccc(Oc2nccc(-c3c(-c4ccc(F)cc4)ncn3C3CCNCC3)n2)cc1 , thanks.
Result: 6.84

Task: Item O=C(Nc1n[nH]c2cc(-c3ccccc3)ccc12)C1CC1 has what recorded inhibition?
Result: 7.18

Task: Given the compound FC(F)(F)c1cccc(Nc2nccc(-c3cnn4nc(-c5ccccc5)ccc34)n2)c1 , what is its reported inhibition?
Result: 6.39

Task: Given the entry Fc1ccc(-c2ncn(CCCN3CCOCC3)c2-c2ccncc2)cc1 , report its measured inhibition.
Result: 2.09

Task: Any idea what inhibition was measured for O=C1NC(=O)C(c2cccc(Cl)c2)=C1Nc1ccc(Cl)c(C(=O)O)c1 ?
Result: 5.32

Task: Suppose we examine the compound COc1ccc2cc(-c3c(-c4ccncc4)nc(-c4ccc([S+](C)[O-])cc4C)n3C)ccc2c1 (stereo not drawn) ; what inhibition value has been reported?
Result: 0.13

Task: Fill in the blank: the reported inhibition of Cc1ccc(C(=O)NC2CCC2)cc1-c1ccc(C(=O)NCC2CC2)cc1 is ____.
Result: 2.85

----------
- TARGET_DESC: Serine/threonine-protein kinase SIK1 (Homo sapiens);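 also: mean inhibition value from the GSK PKIS profiling set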
- APPLIED_CONDITIONS: at 1 µM
Use Yes when the recorded inhibition is no lower than 10%; use No when it is lower.

These recorded examples may help you get a feel for the data.
COc1cc2ncn(-c3cc(OCc4ccccc4C(F)(F)F)c(C(C)=O)s3)c2cc1OC	No
CCS(=O)(=O)c1ccc(OC)c(Nc2ncc(-c3ccccc3Cl)o2)c1	No
Fc1ccc(-c2ncn(C3CCNCC3)c2-c2ccnc(Oc3ccc(Oc4ccccc4)cc3)n2)cc1	Yes
Fc1ccc(-c2ncn(CCCN3CCOCC3)c2-c2ccncc2)cc1	No
COc1cc(C)c(N(C)C(=O)CN(C)C)cc1Nc1nc(Nc2cccc(F)c2C(N)=O)c2cc[nH]c2n1	No

Task: Identify whether the reported inhibition of the following compound is 10% or greater: O=C(Nc1n[nH]c2cc(-c3ccccc3)ccc12)C1CC1
Result: No

Task: Check this compound for inhibition at or above 10%: O=C(Nc1ccc(Oc2ccc3[nH]c(NC(=O)c4ccccc4)nc3c2)cc1)Nc1cc(C(F)(F)F)ccc1F
Result: No

Task: In plain terms: is recorded inhibition at least 10% for COc1cc2ncn(-c3cc(OCc4cccs4)c(C(N)=O)s3)c2cc1OC ?
Result: Yes

Task: Does the reported inhibition for Nc1nccc(-c2c(-c3ccc(F)cc3)ncn2C2CCC(O)CC2)n1 (centres undefined) fall at or above the 10% mark?
Result: No

Task: Form field: inhibition at least 10%? Entry: c1ccc(Oc2ccc(Nc3ncc(-c4ccccc4)o3)cc2)cc1
Result: No

Task: Is the recorded value of inhibition equal to or greater than 10% for this compound? CN(c1ccc(NC(=O)Nc2c(Cl)cccc2Cl)cc1)c1ccnc(Nc2cccc(CS(C)(=O)=O)c2)n1
Result: Yes

Task: Determine whether measured inhibition meets or exceeds 10% for Fc1ccc(-c2nc3n(c2-c2ccncc2)CCS3)cc1
Result: Yes

Task: hey, is inhibition for this one >= 10%? CN(C)c1ccc2c(c1)/C(=C/Nc1ccc(S(N)(=O)=O)cc1)C(=O)N2
Result: Yes

Task: Form field: inhibition at least 10%? Entry: C[C@@H](Oc1cc(-n2cnc3ccc(OC4CCN(C)CC4)cc32)sc1C(N)=O)c1ccccc1Cl
Result: Yes

Task: In plain terms: is recorded inhibition at least 10% for O=C(Nc1n[nH]c2cc(-c3cc(F)ccc3F)ccc12)C1CC1 ?
Result: Yes

Task: Would you say CN(C)CCCNc1nccc(-c2c(-c3ccc(F)cc3)nn3cc(C(F)(F)F)ccc23)n1 shows inhibition at minimum 10%?
Result: No

Task: Can CNC(=O)c1cncc(/C=C/c2c(C)cccc2C)c1 be said to have inhibition at or above 10%?
Result: Yes

Task: Entry Cc1ccc(C(=O)NC2CCC2)cc1-c1ccc(C(=O)NCC2CC2)cc1 : is its inhibition no less than 10%?
Result: No

----------
- TARGET_DESC: Casein kinase I isoform gamma-3 (Homo sapiens) (UniProt Q9Y6M4)
- APPLIED_CONDITIONS: at 1 µM
// reported inhibition for each item listed
API: value field is a number in %; no unit string.

Use the examples below as a reference point.
COc1cc(Nc2ncc3c(C)nc(-c4cccc(Oc5ccccc5)c4)n3n2)cc(OC)c1OC	5.12
CCS(=O)(=O)c1ccc(OC)c(Nc2ncc(-c3cccc(-c4ccccc4F)c3)o2)c1	0.12
COC(=O)Nc1nc2ccc(Sc3ccc(NC(=O)Nc4cc(C(F)(F)F)ccc4F)cc3)cc2[nH]1	0.39
CN(C)CCOc1ccc(-c2cc(-c3ccc4c(c3)CCC4=NO)c(-c3ccncc3)o2)cc1	-0.08
CCc1nccc2c1nc(-c1nonc1N)n2CC	1.97
COc1ccc2ncn(-c3cc(O[C@H](C)c4ccccc4Cl)c(C(N)=O)s3)c2c1	-2.81
COc1ccc2cc(-c3c(-c4ccncc4)nc(-c4ccc([S+](C)[O-])cc4C)n3C)ccc2c1 (stereo unspecified)	-1.93
CCN(CC)Cc1ccc(Nc2nccc(-c3cnn4ncccc34)n2)cc1	10.6

Task: Can you share its inhibition? I mean this compound: CCS(=O)(=O)c1ccc(OC)c(Nc2ncc(-c3ccccc3Cl)o2)c1
Result: 0.35

Task: Entry under review: COc1ccc(C2=C(N3CCc4ccccc43)C(=O)NC2=O)cc1 . Reported inhibition?
Result: 3.33

Task: Can you share its inhibition? I mean this compound: NS(=O)(=O)c1ccc(N/N=C2\C(=O)Nc3ccc(C(=O)NCCCn4ccnc4)cc32)cc1
Result: 12.9

Task: Any idea what its inhibition is? The compound is CN(C)c1ccc2c(c1)/C(=C/Nc1ccc(S(N)(=O)=O)cc1)C(=O)N2
Result: 0.92

Task: For CS(=O)(=O)CCNCc1cc(-c2cc3c(Nc4ccc(OCc5cccc(F)c5)c(Cl)c4)ncnc3s2)cs1 , what is its reported inhibition?
Result: 1.92

Task: Suppose we examine the compound CN1CCN(CCCNc2nc3ccc(Oc4ccc(NC(=O)Nc5cc(C(F)(F)F)ccc5F)cc4)cc3[nH]2)CC1 ; what inhibition value has been reported?
Result: -4.66

Task: Requested field: inhibition. Item: CN(C)CCCNc1nccc(-c2c(-c3ccc(F)cc3)nn3cc(C(F)(F)F)ccc23)n1
Result: -1.67

Task: Request the reported inhibition associated with CN(c1ccc(NC(=O)Nc2c(Cl)cccc2Cl)cc1)c1ccnc(Nc2cccc(CS(C)(=O)=O)c2)n1
Result: -1.25
